Ki for assorted binders
Target: T1, rat µ opioid receptor (rat, UniProt P33535 1-398)
T1 construct: whole, on cells; membrane preparations of the transfected cells were used; also called rMOR; MOR
T1 sequence (P33535 whole entry): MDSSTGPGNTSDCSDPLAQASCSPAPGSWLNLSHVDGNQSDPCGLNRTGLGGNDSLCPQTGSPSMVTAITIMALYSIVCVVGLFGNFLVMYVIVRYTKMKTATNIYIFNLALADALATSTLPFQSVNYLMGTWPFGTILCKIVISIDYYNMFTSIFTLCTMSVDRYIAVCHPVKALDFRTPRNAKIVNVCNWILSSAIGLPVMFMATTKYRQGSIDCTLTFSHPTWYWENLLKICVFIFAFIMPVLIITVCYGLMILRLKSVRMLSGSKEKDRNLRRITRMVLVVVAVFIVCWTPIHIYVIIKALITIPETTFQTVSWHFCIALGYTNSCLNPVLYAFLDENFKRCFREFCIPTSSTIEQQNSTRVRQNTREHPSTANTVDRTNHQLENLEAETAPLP
Assay: competition vs [3H]DAMGO, rMOR cell membranes
Square brackets hold non-standard residues; d marks the D form. Primed or numbered codes have the meaning given here. Ends that are not written are not given here. * marks the point of attachment. Glc = O-glucosyl on Ser side chain (Ser(OGlu)/Ser(OGlc)); NH(3,5-(CF3)2-benzyl) = FC(F)(F)c1cc(CN*)cc(C(F)(F)F)c1; Glc″ = glucosyl on the serine side-chain oxygen; Nle = CCCC[C@H](N)C(=O)O
metric: Ki

[
  {
    "binder": "Y[dA]GFS(Glc)PLW-{NH(3,5-(CF3)2-benzyl)} (also called TY042) [TyrDAlaGlyPheSer(OGlu)ProLeuTrpNHBn(CF3)2]",
    "result": "256 nM"
  },
  {
    "binder": "Y[dA]GF[Nle]S(Glc″)LW-{NH(3,5-(CF3)2-benzyl)} (also called TY044) [TyrDAlaGlyPheNleSer(OGlu)LeuTrpNHBn(CF3)2]",
    "result": "3370 nM"
  },
  {
    "binder": "Y[dA]GF[Nle]PS(Glc)W-{NH(3,5-(CF3)2-benzyl)} (also called TY041) [TyrDAlaGlyPheNleProSer(OGlu)TrpNHBn(CF3)2]",
    "result": "8 nM"
  }
]

Source of measurements: patent US8026218
